All figures here come from ChEMBL document CHEMBL4049425.

Examples of compounds with documented CL free follow.
# Tested on: Liver
# Assay Details: Unbound intrinsic clearance in mouse liver microsomes
# Format: ADME, microsome
I only need the number, in mL/min/kg, no unit after it.

Smiles Data	Recorded Value
CCS(=O)(=O)c1cnc2c(c1)-c1cn(C)c(=O)cc1OCCCCc1cc(Cl)ccc1O2	267
CCS(=O)(=O)c1ccc2c(c1)-c1cn(C)c(=O)cc1OCCc1ccccc1O2	333
CCOc1cc(=O)n(C)cc1-c1cc(NS(=O)(=O)CC)ccc1Oc1ccccc1	91.7
CCS(=O)(=O)Nc1ccc2c(c1)-c1cn(C)c(=O)cc1OCCCCc1cc(Cl)ccc1O2	2330

Input line: Value lookup for CL free; key = CCS(=O)(=O)c1ccc2c(c1)-c1cn(C)c(=O)cc1OCCCc1ccccc1O2
Output line: 900

Input line: Value lookup for CL free; key = CCOc1cc(=O)n(C)cc1-c1cc(NS(=O)(=O)CC)ccc1Oc1ccc(OC(F)(F)F)cc1
Output line: 1500

Input line: Value lookup for CL free; key = CCS(=O)(=O)Nc1cnc2c(c1)-c1cn(C)c(=O)cc1OCCCCc1cc(F)cc(F)c1O2
Output line: 250

Input line: Value lookup for CL free; key = CCS(=O)(=O)c1ccc2c(c1)-c1cn(C)c(=O)cc1OCCCCc1ccccc1O2
Output line: 867

###

Examples of compounds with documented Ki follow.
# Tested Target: Bromodomain-containing protein 4 (Homo sapiens, UniProt O60885)
# Assay Details: Inhibition of human N-terminal His6-tagged BRD4 BD1-BD2 (57 to 550 residues) expressed in EScherichia coli BL21(DE3) after 1 hr by Alexa-647-conjugated probe based TR-FRET assay
Number first, unit second: that is the form wanted.

Input line: Value lookup for Ki; key = CCOc1cc(=O)n(C)cc1-c1cc(NS(=O)(=O)CC)ccc1Oc1ccc(C#N)cc1
Output line: 16 nM

###

# Tested Target: Bromodomain-containing protein 4 (Homo sapiens)
# Assay Details: Inhibition of BRD4 in human NCI-H1299 cells after 24 hrs by Bright-Glo luciferase reporter gene assay
# Type: cell-based
Value Type: EC50 (nM)
I only need the number, in nM, no unit after it.

Smiles Data	EC50 / nM
Cn1cc2c(cc1=O)OCCCCc1cc(Cl)ccc1Oc1ncc(CS(C)(=O)=O)cc1-2	24
CCS(=O)(=O)Nc1cnc2c(c1)-c1cn(C)c(=O)cc1OCCCCc1cc(F)cc(F)c1O2	6.4
CCS(=O)(=O)Nc1ccc(Oc2ccc(F)cc2F)c(-c2cn(C)c(=O)cc2OC)c1	56
CCS(=O)(=O)Nc1ccc(Oc2ccc(F)cc2F)c(-c2cn(C)c(=O)cc2OCC(F)(F)F)c1	100

Now consider the entry below.
Input line: Value lookup for EC50; key = COc1cc(=O)n(C)nc1-c1cc(NS(C)(=O)=O)ccc1Oc1ccccc1
Output line: 230

###

# Test system: Liver
# Assay Details: Unbound intrinsic clearance in rat liver microsomes
# Format: ADME, microsome
Examples of compounds with documented CL free follow.
I only need the number, in L/h/kg, no unit after it.

Input line: Value lookup for CL free; key = CCS(=O)(=O)Nc1ccc2c(c1)-c1cn(C)c(=O)cc1OCCCCCc1cc(Cl)ccc1O2
Output line: 110

###

# Assay Details: Fraction unbound in SCID-Beige mouse plasma xenografted with human OPM2 cells at 1 to 2 mg/kg, po
# Assay type: ADME, organism-based
Value Type: fraction unbound
Respond with the number and no other words.

Input line: Value lookup for fraction unbound; key = CCS(=O)(=O)c1cnc2c(c1)-c1cn(C)c(=O)cc1OCCCCc1cc(Cl)ccc1O2
Output line: 0.04

###

Examples of compounds with documented bioavailability follow.
# Assay Details: Oral bioavailability in mouse at 1 mg/kg
# Assay type: ADME, organism-based
# Cond: in vivo
Number first, unit second: that is the form wanted.

Input line: Value lookup for bioavailability; key = Cn1cc2c(cc1=O)OCCCCc1cc(Cl)ccc1Oc1ccc(CS(C)(=O)=O)cc1-2
Output line: 68%

Input line: Value lookup for bioavailability; key = CCS(=O)(=O)Nc1ccc2c(c1)-c1cn(C)c(=O)cc1OCCCCc1cc(Cl)ccc1O2
Output line: 39%

Input line: Value lookup for bioavailability; key = CCS(=O)(=O)c1cnc2c(c1)-c1cn(C)c(=O)cc1OCCCCc1cc(Cl)ccc1O2
Output line: 84%

Input line: Value lookup for bioavailability; key = CCS(=O)(=O)Nc1cnc2c(c1)-c1cn(C)c(=O)cc1OCCCCc1cc(Cl)ccc1O2
Output line: 70%

Input line: Value lookup for bioavailability; key = CCS(=O)(=O)c1ccc2c(c1)-c1cn(C)c(=O)cc1OCCCCc1cc(Cl)ccc1O2
Output line: 41%

Input line: Value lookup for bioavailability; key = CCS(=O)(=O)Nc1cnc2c(c1)-c1cn(C)c(=O)cc1OCCCCc1cc(F)cc(F)c1O2
Output line: 27%

Input line: Value lookup for bioavailability; key = Cn1cc2c(cc1=O)OCCCCc1cc(Cl)ccc1Oc1ncc(CS(C)(=O)=O)cc1-2
Output line: 45%

###

Examples of molecules with documented bioavailability follow.
# Assay Details: Oral bioavailability in rat at 1 mg/kg
# Format: ADME, organism-based
# Cond: in vivo
I only need the number, in %, no unit after it.

Below, 3 molecules whose answers are already recorded.
Smiles Data	Units Symbol	Recorded Value
CCS(=O)(=O)Nc1ccc2c(c1)-c1cn(C)c(=O)cc1OCCCCc1cc(Cl)ccc1O2	%	16
CCS(=O)(=O)Nc1cnc2c(c1)-c1cn(C)c(=O)cc1OCCCCc1cc(Cl)ccc1O2	%	19
CCS(=O)(=O)c1cnc2c(c1)-c1cn(C)c(=O)cc1OCCCCc1cc(Cl)ccc1O2	%	95

Now consider the entry below.
Input line: Value lookup for bioavailability; key = Cn1cc2c(cc1=O)OCCCCc1cc(Cl)ccc1Oc1ncc(CS(C)(=O)=O)cc1-2
Output line: 2.8

###

# Assay Details: Fraction unbound in SCID-Beige mouse plasma xenografted with human OPM2 cells at 1 to 3 mg/kg, po
# Type: ADME, organism-based
Value Type: fraction unbound

Input line: Value lookup for fraction unbound; key = CCS(=O)(=O)Nc1ccc(Oc2ccc(F)cc2F)c(-c2cn(C)c(=O)cc2OC)c1
Output line: 0.14

###

# Tested Target: Bromodomain-containing protein 4 (Homo sapiens)
# Assay Details: Inhibition of BRD4 in human NCI-H1299 cells after 24 hrs by Bright-Glo luciferase reporter gene assay
Value Type: pEC50
pEC50 (log units): -log10 of the concentration in mol/L.

Smiles Data	pEC50
CCOc1cc(=O)n(C)cc1-c1cc(NS(=O)(=O)CC)ccc1Oc1ccc(Cl)cc1	7.57
CCS(=O)(=O)Nc1ccc(Oc2ccccc2)c(-c2cn(C)c(=O)cc2OC)c1	7.17
CCS(=O)(=O)Nc1cnc2c(c1)-c1cn(C)c(=O)cc1OCCCCc1cc(Cl)ccc1O2	8.03
CCS(=O)(=O)c1ccc2c(c1)-c1cn(C)c(=O)cc1OCCCCc1cc(Cl)ccc1O2	7.80
CCOc1cc(=O)n(C)cc1-c1cc(NS(=O)(=O)CC)ccc1Oc1cccnc1	6.82
CCS(=O)(=O)Nc1ccc(Oc2ccc(F)cc2F)c(-c2cn(C)c(=O)cc2OCC(C)C)c1	6.74
CCS(=O)(=O)c1ccc2c(c1)-c1cn(C)c(=O)cc1OCCc1ccccc1O2	6.20
CCOc1cc(=O)n(C)cc1-c1cc(S(=O)(=O)CC)ccc1Oc1ccc(F)cc1F	7.18

Input line: Value lookup for pEC50; key = CCOc1cc(=O)n(C)cc1-c1cc(CS(C)(=O)=O)ccc1Oc1ccc(F)cc1F
Output line: 6.64

Input line: Value lookup for pEC50; key = CCNc1cc(=O)n(C)cc1-c1cc(NS(=O)(=O)CC)ccc1Oc1ccc(F)cc1F
Output line: 6.85

Input line: Value lookup for pEC50; key = COc1cc(=O)n(C)cc1-c1cc(NS(C)(=O)=O)ccc1Oc1ccccc1
Output line: 7.11

###

# Tested on: Mus musculus
# Assay Details: Fraction absorbed in portal vein of mouse at 3 mg/kg, iv or 10 mg/kg, po
# Format: ADME, organism-based
# Cond: in vivo
Value Type: FaFg
Respond with the number and no other words.

Input line: Value lookup for FaFg; key = CCS(=O)(=O)Nc1ccc(Oc2ccc(F)cc2F)c(-c2cn(C)c(=O)cc2OC2COC2)c1
Output line: 0.3

Input line: Value lookup for FaFg; key = CCOc1cc(=O)n(C)cc1-c1cc(S(=O)(=O)CC)ccc1Oc1ccc(F)cc1F
Output line: 0.52

Input line: Value lookup for FaFg; key = CCS(=O)(=O)Nc1ccc(Oc2ccc(F)cc2F)c(-c2cn(C)c(=O)cc2OC)c1
Output line: 0.89

Input line: Value lookup for FaFg; key = CCOc1cc(=O)n(C)cc1-c1cc(NS(=O)(=O)CC)ccc1Oc1ccc(F)cc1F
Output line: 0.79

###

Examples of molecules with documented fAUC follow.
# Tested on: Rattus norvegicus
# Assay Details: Unbound AUC in rat at 1 mg/kg, po
# Format: ADME, organism-based
# Cond: in vivo
I only need the number, in ng·h/mL, no unit after it.

Below, 3 molecules whose answers are already recorded.
Smiles Data	fAUC / ng·h/mL
CCS(=O)(=O)c1cnc2c(c1)-c1cn(C)c(=O)cc1OCCCCc1cc(Cl)ccc1O2	69
CCS(=O)(=O)Nc1ccc2c(c1)-c1cn(C)c(=O)cc1OCCCCc1cc(Cl)ccc1O2	1
Cn1cc2c(cc1=O)OCCCCc1cc(Cl)ccc1Oc1ncc(CS(C)(=O)=O)cc1-2	2

Input line: Value lookup for fAUC; key = CCS(=O)(=O)Nc1cnc2c(c1)-c1cn(C)c(=O)cc1OCCCCc1cc(Cl)ccc1O2
Output line: 5
